Target: AII receptor (Bos taurus)
Construct: Tissue of bovine adrenal cortex was finely cut and suspended; from tissue; host or cells: bovine adrenal cortex membrane fraction
Sequence (P25104 1-359): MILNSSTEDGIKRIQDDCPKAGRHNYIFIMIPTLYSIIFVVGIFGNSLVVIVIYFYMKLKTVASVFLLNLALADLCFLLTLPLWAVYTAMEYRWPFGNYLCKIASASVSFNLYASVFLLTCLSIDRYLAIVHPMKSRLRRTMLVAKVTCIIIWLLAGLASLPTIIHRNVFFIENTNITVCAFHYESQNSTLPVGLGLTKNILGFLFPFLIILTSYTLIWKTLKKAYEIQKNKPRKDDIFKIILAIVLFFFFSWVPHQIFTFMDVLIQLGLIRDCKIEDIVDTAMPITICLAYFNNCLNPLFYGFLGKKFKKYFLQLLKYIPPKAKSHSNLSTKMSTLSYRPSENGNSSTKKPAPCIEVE
Experiment: Receptor binding test using bovine adrenal cortex ([125I]AII binding)
Settings: test compound 0.1 µM; receptor binding of [125I]AII (2.5 × 10^-10M); bovine adrenal cortex membranes; room temperature, 2 hours; read-out: Inhibition Rate (%)
endpoint.label: inhibition at 0.1 µM (%)
# unit: % | format: bare number

Report inhibition at 0.1 µM for `CCc1nc2c(C)cc(C)nc2n1Cc1ccc2c(c1)C=Cc1c(Br)cccc1C2=Cc1nnn[nH]1` please.
14

Report inhibition at 0.1 µM for `CCc1nc2c(C)cc(C)nc2n1Cc1ccc2c(c1)OCc1ccc(Br)cc1C2=CC(=O)O` please.
52

Report inhibition at 0.1 µM for `CCc1nc2c(C)cc(C)nc2n1Cc1ccc2c(c1)COc1ccccc1C2=Cc1nnn[nH]1` please.
81

Report inhibition at 0.1 µM for CCc1nc2c(C)cc(C)nc2n1Cc1ccc2c(c1)OCc1ccccc1C2CC(=O)O (stereo not drawn) please.
61

Report inhibition at 0.1 µM for `CCc1nc2c(C)cc(C)nc2n1Cc1ccc2c(c1)CCc1ccccc1N2CC(=O)O` please.
88

Report inhibition at 0.1 µM for `Cc1cc(C)c2nc(C3CC3)n(Cc3ccc4c(c3)CCc3ccccc3N4Cc3nnn[nH]3)c2n1` please.
97

Report inhibition at 0.1 µM for `CCc1nc2c(C)cc(C)nc2n1Cc1ccc2c(c1)OCc1ccsc1C2=CC(=O)O` please.
84

Report inhibition at 0.1 µM for CCc1nc2c(C)cc(C)nc2n1Cc1ccc2c(c1)CCc1ccccc1C2Cc1nnn[nH]1 (stereo not drawn) please.
83

Report inhibition at 0.1 µM for Cc1cc(C)c2nc(C3CC3)n(Cc3ccc4c(c3)CCc3ccccc3C4Cc3nnn[nH]3)c2n1 (stereo not drawn) please.
92

Report inhibition at 0.1 µM for `CCc1nc2c(C)cc(C)nc2n1Cc1ccc2c(c1)OCc1ccccc1C2=CC(=O)O` please.
78

Report inhibition at 0.1 µM for `CCc1nc2c(C)cc(C)nc2n1Cc1ccc2c(c1)CCc1ccccc1N2Cc1nnn[nH]1` please.
86

Report inhibition at 0.1 µM for CCc1nc2c(C)cc(C)nc2n1Cc1ccc2c(c1)CCc1ccccc1C2=Cc1nnn[nH]1 (single isomer, unassigned) [Compound 20A] please.
70

Report inhibition at 0.1 µM for CCc1nc2c(C)cc(C)nc2n1Cc1ccc2c(c1)OCc1ccccc1C2Cc1nnn[nH]1 (stereo not drawn) please.
94

Report inhibition at 0.1 µM for `CCc1nc2c(C)cc(C)nc2n1Cc1ccc2c(c1)CCc1ccccc1N2Cc1ccccc1C(=O)O` please.
68

Report inhibition at 0.1 µM for `CCc1nc2c(C)cc(C)nc2n1Cc1ccc2c(c1)c1ccccc1n2CCc1nnn[nH]1` please.
85

Report inhibition at 0.1 µM for `CCc1nc2c(C)cc(C)nc2n1Cc1ccc2c(c1)CCc1ccccc1C2=CC(=O)O` please.
91

Report inhibition at 0.1 µM for `CCCc1nc2c(C)cccc2n1Cc1ccc2c(c1)OCc1ccccc1C2=CC(=O)O` please.
43

Report inhibition at 0.1 µM for `CCc1nc2c(C)cc(C)nc2n1Cc1ccc2c(c1)C=Cc1sccc1C2=CC(=O)O` please.
72

Report inhibition at 0.1 µM for CCCCC(=O)N(Cc1ccc2c(c1)CCc1ccccc1N2Cc1nnn[nH]1)C(C(=O)O)C(C)C (stereo not drawn) please.
95

Report inhibition at 0.1 µM for `CCc1nc2c(C)cc(C)nc2n1Cc1ccc2c(c1)C=Cc1ccc(F)cc1C2=CC(=O)O` please.
77

Report inhibition at 0.1 µM for `CCc1nc2c(C)cc(C)nc2n1Cc1ccc2c(c1)SCc1ccccc1C2=Cc1nnn[nH]1` please.
80

Cited source for all entries: patent EP0549352B1
